Molecular target: BRM (Homo sapiens, UniProt P51531)
Sequence (P51531 whole entry): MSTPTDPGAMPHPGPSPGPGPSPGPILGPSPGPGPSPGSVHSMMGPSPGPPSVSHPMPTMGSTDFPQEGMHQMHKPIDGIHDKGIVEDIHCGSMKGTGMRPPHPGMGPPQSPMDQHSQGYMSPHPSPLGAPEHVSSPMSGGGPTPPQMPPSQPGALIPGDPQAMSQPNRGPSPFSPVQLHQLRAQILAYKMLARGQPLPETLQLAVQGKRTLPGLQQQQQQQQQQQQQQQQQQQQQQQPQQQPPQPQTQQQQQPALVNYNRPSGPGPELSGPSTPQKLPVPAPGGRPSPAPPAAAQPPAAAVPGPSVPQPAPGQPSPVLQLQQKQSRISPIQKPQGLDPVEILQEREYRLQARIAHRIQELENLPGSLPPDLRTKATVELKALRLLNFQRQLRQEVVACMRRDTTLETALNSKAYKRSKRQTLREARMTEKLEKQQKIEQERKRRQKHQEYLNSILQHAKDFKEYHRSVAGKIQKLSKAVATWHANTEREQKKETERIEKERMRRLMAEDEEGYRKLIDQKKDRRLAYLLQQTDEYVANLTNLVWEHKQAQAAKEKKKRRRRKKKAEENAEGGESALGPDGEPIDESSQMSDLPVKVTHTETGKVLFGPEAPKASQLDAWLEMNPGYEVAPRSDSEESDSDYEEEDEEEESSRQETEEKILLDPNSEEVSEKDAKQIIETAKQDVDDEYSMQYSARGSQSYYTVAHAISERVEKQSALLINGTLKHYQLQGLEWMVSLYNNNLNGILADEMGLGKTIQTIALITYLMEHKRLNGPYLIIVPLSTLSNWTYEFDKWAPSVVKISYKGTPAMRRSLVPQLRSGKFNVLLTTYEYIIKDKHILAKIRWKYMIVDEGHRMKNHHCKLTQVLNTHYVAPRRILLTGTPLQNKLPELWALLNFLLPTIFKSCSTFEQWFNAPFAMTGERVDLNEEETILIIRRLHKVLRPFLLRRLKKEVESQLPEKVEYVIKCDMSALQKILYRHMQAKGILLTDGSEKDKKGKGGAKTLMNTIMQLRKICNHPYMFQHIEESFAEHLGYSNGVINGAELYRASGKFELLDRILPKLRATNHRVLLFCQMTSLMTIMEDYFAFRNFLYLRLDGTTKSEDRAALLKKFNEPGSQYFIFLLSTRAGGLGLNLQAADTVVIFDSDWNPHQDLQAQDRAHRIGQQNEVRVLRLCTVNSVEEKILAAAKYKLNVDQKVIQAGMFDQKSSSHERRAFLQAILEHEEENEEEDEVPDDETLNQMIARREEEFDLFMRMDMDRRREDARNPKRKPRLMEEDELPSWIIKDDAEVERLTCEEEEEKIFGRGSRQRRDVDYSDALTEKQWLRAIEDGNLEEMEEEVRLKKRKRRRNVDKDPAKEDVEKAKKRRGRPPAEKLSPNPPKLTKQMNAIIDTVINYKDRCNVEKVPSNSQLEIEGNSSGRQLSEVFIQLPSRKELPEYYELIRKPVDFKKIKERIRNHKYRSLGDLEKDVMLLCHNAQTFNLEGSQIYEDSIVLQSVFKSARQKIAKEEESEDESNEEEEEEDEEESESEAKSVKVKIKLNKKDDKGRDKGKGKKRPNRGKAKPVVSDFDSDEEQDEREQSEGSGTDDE
Assay: ATPase catalytic activity assay of BRM (ADP-Glo)
Format: biochemical
Record form. Attribute: BRM Max % Inhibition. Fill in for each entry.

Lookup: Read off the recorded BRM Max % Inhibition for C[C@@H]1CN(c2cccc(-c3csc(NC(=O)CNC(=O)c4cccc([C@H]5COC[C@@H]5O)c4)n3)c2)C[C@H](C)O1 [Compound 156]
Found: >80%

Lookup: Read off the recorded BRM Max % Inhibition for CC1(CO)CCc2ccc(C(=O)NCC(=O)Nc3nc(-c4ccn5ccnc5c4)cs3)cc21 (stereo in doubt) [Compound 178]
Found: >80%

Lookup: Read off the recorded BRM Max % Inhibition for CN1CCOc2ccc(-c3csc(NC(=O)CNC(=O)c4ccc5c(c4)[C@](C)(CO)CC5)n3)cc21 [Compound 173]
Found: >95%

Lookup: Read off the recorded BRM Max % Inhibition for C[C@@]1(F)COCc2ccc(C(=O)NCC(=O)Nc3nc(C4CCOCC4)cs3)cc21 [Compound 297]
Found: >95%

Lookup: Read off the recorded BRM Max % Inhibition for C[C@@H]1CN(c2cccc(-c3csc(NC(=O)CNC(=O)c4ccc5c(c4)S(=O)(=O)CCC5)n3)c2)C[C@H](C)O1 [Compound 396]
Found: >90%

Lookup: Read off the recorded BRM Max % Inhibition for CC(C)(CN)c1cccc(C(=O)NCC(=O)Nc2nc(-c3cccc(CO[C@H]4CC[C@H](O)CC4)c3)cs2)c1 [Compound 62]
Found: >80%

Lookup: Read off the recorded BRM Max % Inhibition for C[C@@]1(C#N)COCc2ccc(C(=O)NCC(=O)Nc3nc(-c4cc(F)cc(C5CCO5)c4)cs3)cc21 (some centres unmarked) [Compound 316]
Found: >95%

Lookup: Read off the recorded BRM Max % Inhibition for CC1(C)c2cc(C(=O)NCC(=O)Nc3nc(-c4cccc(-c5ccncc5)c4)cs3)ccc2C[C@@H]1N [Compound 250]
Found: >70%
